Target: GTPase HRas (Homo sapiens) (UniProt P01112)
Sequence (P01112 whole entry, looked up): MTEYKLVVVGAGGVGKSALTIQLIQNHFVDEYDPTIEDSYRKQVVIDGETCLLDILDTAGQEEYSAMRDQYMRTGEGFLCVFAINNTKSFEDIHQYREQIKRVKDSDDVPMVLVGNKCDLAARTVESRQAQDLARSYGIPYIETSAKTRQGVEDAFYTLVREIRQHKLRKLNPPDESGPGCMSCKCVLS
Test: Ras wt fluorescent GTP loading blockade – biochemical, wildtype, multiplex bead flow cytometry, dose response (AID 1335)
Conditions: bead-based flow cytometry, Bodipy-GTP binding to GST-Ras; at 100 µM (top of the series) unless noted
Form field: GTP binding, percent of control (one value per entry).
Supply the numeric figure in %, leaving out any unit text.

SMILES_ENTRY: O=C(/C=C/c1c(Cl)nc2ccccn12)N1CCCCC1
GTP binding, percent of control [%]: 80.9
//
SMILES_ENTRY: O=C(OCCN1CCCCC1)c1cc2ccccc2o1
GTP binding, percent of control [%]: 79.9
//
SMILES_ENTRY: O=C(COc1ncnc2cc([N+](=O)[O-])ccc12)NCCc1ccc(Cl)cc1
GTP binding, percent of control [%]: 78.8
//
SMILES_ENTRY: CCCOC(=O)c1c(NC(=O)CCC(=O)O)sc2c1CCCCC2
GTP binding, percent of control [%]: 79

# GTP binding, percent of control (molecule: CCCCCCCCCCCC(=O)c1c(O)cccc1O ) is 79.8

Just so you know, measured GTP binding, percent of control for Cc1cccc(CSc2ncccc2C(=O)O)c1 came out at 70.8

====

Assay: TOR pathway GLN3 branch reporter MEP2-GFP changes – S. cerevisiae, multiplex flow cytometry, primary screen (AID 1867);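 also: median GFP channel fluorescence of barcode-gated MEP2-GFP cells measured by flow cytometry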
Details: S. cerevisiae MEP2-GFP strain, 3 h, at 10 µM, stronger effect = higher value, 100% means same as DMSO wells
Results filed as inconclusive are left out.
READOUT_NAME: GFP response vs DMSO (%)
// note: answer is a bare numeric in %

COMPOUND: Nc1nc(Cl)nc2c1ncn2[C@H]1C[C@H](O)[C@@H](CO)O1
VALUE_UNIT: %
EXPERIMENTAL_VALUE: 102
//
COMPOUND: Cc1ccc(S(=O)(=O)NC(C(=O)Oc2ccc3c(C(F)(F)F)cc(=O)oc3c2)c2ccccc2)cc1 (stereo unspecified)
VALUE_UNIT: %
EXPERIMENTAL_VALUE: 102
//
COMPOUND: COc1c2c(nc3occc13)C(CC=C(C)C)(OC)C(O)CC2 (stereo unspecified)
VALUE_UNIT: %
EXPERIMENTAL_VALUE: 131
//
COMPOUND: O=C1c2ccccc2C2(c3ccccc3)NCCN12 (stereo unspecified)
VALUE_UNIT: %
EXPERIMENTAL_VALUE: 102
//
COMPOUND: FC(F)(F)c1ccc(-c2noc(CN3CCCN(C4CCCCC4)CC3)n2)cc1
VALUE_UNIT: %
EXPERIMENTAL_VALUE: 105

Entry CC(=O)Nc1nnc(S(N)(=O)=O)s1 — recorded GFP response vs DMSO = 95.1

====

Recorded inhibition values for a group of molecules are listed next.
Molecular target: ATP-binding cassette sub-family B member 6 (Homo sapiens)
Assay: blockers of ABCB6-driven porphyrin uptake – K562-ABCB6 cells, flow cytometry, validation set, pilot screen (AID 588550);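 also: 0% = DMSO wells and 100% = benzethonium chloride 70 µM positive control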
Details: K562-ABCB6 porphyrin accumulation, 1 h, at 10 µM, stronger effect = higher value
The reply should contain only the number, in %.

Check out these entries, answers already filled in.
MOLECULE: CCN(CC)c1ccc([C@H]2[C@@H]3CCCC[C@]3(O)CCN2CC(=O)NCc2ccco2)cc1
inhibition (%): 8
--
MOLECULE: CCCCN1C[C@H](O)[C@@H](O)[C@H](O)[C@H]1CO
inhibition (%): 0
--
MOLECULE: COC(=O)C1=C(C)NC(C)=C([N+](=O)[O-])C1c1ccccc1C(F)(F)F (stereo unspecified)
inhibition (%): 4
--
MOLECULE: COC(=O)C1[C@H]2C(=O)N(Cc3cccs3)C[C@]23C=C[C@H]1O3 (stereo partly specified)
inhibition (%): 6
--
MOLECULE: COc1ccccc1CCn1cnc2c3cc(C)ccc3n(C)c2c1=O
inhibition (%): -9

Item: COc1ccc2cc(C(=O)OC(C)C)sc(=O)c2c1OC | inhibition: 4

Lab book: inhibition of CCOC(=O)C1=C2c3ccc4ccccc4c3CC(C)(C)N2C(=O)C1=O noted as -3

====

System: anti-desmoglein-3 scFv antibody binding to human DSG3
Experiment: blockers of pathogenic pemphigus antibody–desmoglein-3 binding – biochemical, validation compound set, bead-based, flow cytometry, pilot screen (AID 588368);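 also: signal is the median channel fluorescence of bead-bound GFP antibody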
Conditions: Protein G beads, DSG3-Fc, scFv-GFP binding, at 10 µM, stronger effect = lower value
READOUT_NAME: binding (% of control) (%)
Answer in %, number only, no unit symbol.

COMPOUND: O=C(O)[C@@H](O)c1ccccc1
VALUE_UNIT: %
binding (% of control): 106
--
COMPOUND: COc1ccc(C2NC(=O)c3ccccc3O2)c(OC)c1OC (stereo not given)
VALUE_UNIT: %
binding (% of control): 95.5
--
COMPOUND: O=C(NC(=S)Nc1nc(-c2ccccc2)cs1)c1ccco1
VALUE_UNIT: %
binding (% of control): 102
--
COMPOUND: CC(C)C(=O)Nc1c(O)c2ccccc2[nH]c1=O
VALUE_UNIT: %
binding (% of control): 96.6
--
COMPOUND: COc1ccccc1N=CC1=C(O)CC(c2ccccc2)CC1=O (stereo not given)
VALUE_UNIT: %
binding (% of control): 103
--
COMPOUND: COc1cc2c(cc1OC)C(c1ccccc1)=NCC2
VALUE_UNIT: %
binding (% of control): 99
--
COMPOUND: COc1ccc(C(C)=O)c2c1OCCO2
VALUE_UNIT: %
binding (% of control): 99.5
--
COMPOUND: CCOC(=O)N1CCc2[nH]c3ccc(C)cc3c2C1
VALUE_UNIT: %
binding (% of control): 105
--
COMPOUND: O=C1CC(c2ccc(OCCCCCOc3ccc(C4CC(=O)NC4=O)cc3)cc2)C(=O)N1 (stereo not given)
VALUE_UNIT: %
binding (% of control): 101
--
COMPOUND: Cc1nonc1CN(C)C(=O)c1ccc(OC2CCN(Cc3ccccn3)CC2)cc1
VALUE_UNIT: %
binding (% of control): 97.6

Tested on anti-desmoglein-3 scFv antibody binding to human DSG3, the item COc1ccc2[nH]cc(C3N4CC5(C)CN3CC(C)(C4)C5=O)c2c1 (stereo not given) showed binding (% of control) equal to 101

The compound CCC(=O)O[C@]1(C(=O)CCl)[C@@H](C)C[C@H]2[C@@H]3CCC4=CC(=O)C=C[C@]4(C)[C@@]3(F)[C@@H](O)C[C@@]21C , tested on anti-desmoglein-3 scFv antibody binding to human DSG3, showed binding (% of control) of 97.9

Noted binding (% of control) for CC(=O)Nc1ccc2[nH]c(C)c(CC=C(Cl)Cl)c(=O)c2c1 , tested on anti-desmoglein-3 scFv antibody binding to human DSG3: 97.9

Readout binding (% of control) for C[C@]12CC[C@@H]3c4ccc(O)cc4C(=O)C[C@H]3[C@@H]1CC[C@@H]2O , test system anti-desmoglein-3 scFv antibody binding to human DSG3, was 91.9

Query CCOC(=O)N1CCN(Cc2nc(Cc3cccc(F)c3)no2)CC1 on anti-desmoglein-3 scFv antibody binding to human DSG3; binding (% of control) returned: 94.8

Reading of binding (% of control) for CCOC(=O)[C@H]1O[C@@H]1C(=O)N[C@@H](CC(C)C)C(=O)NCCC(C)C with anti-desmoglein-3 scFv antibody binding to human DSG3: 106

Here CC1(CC(=O)Nc2ccccc2)NC(=S)N(c2ccccc2)N1 (stereo not given) was tested on anti-desmoglein-3 scFv antibody binding to human DSG3, and its binding (% of control) came to 99.1

// compound COc1cc(SC)ccc1C(=O)NC(C)C , assay anti-desmoglein-3 scFv antibody binding to human DSG3, binding (% of control) value: 101

Value (binding (% of control), anti-desmoglein-3 scFv antibody binding to human DSG3) for record CN1C2CCC1CC(OC(c1ccccc1)c1ccccc1)C2 (stereo not given) = 98.4

anti-desmoglein-3 scFv antibody binding to human DSG3 binding (% of control) of O=C(NCCN1CCN(c2ccccc2)CC1)c1cccc(Br)c1 is 103

The reported anti-desmoglein-3 scFv antibody binding to human DSG3 binding (% of control) of Cc1ccc2c(c1)C(C)(C)[C@]1(C)NC(=O)CCN21 is 98

Entry c1cc(-c2ccncc2)ccn1 ; assay system anti-desmoglein-3 scFv antibody binding to human DSG3; binding (% of control) recorded at 101

====

Target: Integrin beta-1 (Homo sapiens) + Integrin alpha-4 (Homo sapiens) (UniProt P13612+P05556)
Sequence (P05556 whole entry, looked up): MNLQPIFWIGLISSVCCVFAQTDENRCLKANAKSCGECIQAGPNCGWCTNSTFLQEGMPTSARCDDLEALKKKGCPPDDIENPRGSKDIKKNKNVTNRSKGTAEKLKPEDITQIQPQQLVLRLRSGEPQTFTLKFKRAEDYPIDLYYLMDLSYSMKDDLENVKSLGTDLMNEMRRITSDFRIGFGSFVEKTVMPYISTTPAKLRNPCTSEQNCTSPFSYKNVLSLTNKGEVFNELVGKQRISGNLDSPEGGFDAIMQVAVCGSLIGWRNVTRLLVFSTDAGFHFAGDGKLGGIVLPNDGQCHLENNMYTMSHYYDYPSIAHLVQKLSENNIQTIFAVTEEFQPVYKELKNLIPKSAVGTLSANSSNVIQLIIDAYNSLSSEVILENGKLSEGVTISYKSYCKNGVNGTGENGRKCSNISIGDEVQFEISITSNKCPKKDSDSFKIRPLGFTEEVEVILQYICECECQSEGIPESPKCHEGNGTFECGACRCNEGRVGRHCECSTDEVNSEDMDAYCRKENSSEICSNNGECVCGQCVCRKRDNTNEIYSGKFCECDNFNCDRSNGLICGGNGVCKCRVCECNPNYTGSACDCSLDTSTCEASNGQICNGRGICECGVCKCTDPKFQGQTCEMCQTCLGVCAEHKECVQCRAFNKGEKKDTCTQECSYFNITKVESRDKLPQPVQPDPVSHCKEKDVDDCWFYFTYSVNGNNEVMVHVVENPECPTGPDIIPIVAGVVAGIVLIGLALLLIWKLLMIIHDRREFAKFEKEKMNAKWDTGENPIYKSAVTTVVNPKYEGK
Sequence (P13612 whole entry, looked up): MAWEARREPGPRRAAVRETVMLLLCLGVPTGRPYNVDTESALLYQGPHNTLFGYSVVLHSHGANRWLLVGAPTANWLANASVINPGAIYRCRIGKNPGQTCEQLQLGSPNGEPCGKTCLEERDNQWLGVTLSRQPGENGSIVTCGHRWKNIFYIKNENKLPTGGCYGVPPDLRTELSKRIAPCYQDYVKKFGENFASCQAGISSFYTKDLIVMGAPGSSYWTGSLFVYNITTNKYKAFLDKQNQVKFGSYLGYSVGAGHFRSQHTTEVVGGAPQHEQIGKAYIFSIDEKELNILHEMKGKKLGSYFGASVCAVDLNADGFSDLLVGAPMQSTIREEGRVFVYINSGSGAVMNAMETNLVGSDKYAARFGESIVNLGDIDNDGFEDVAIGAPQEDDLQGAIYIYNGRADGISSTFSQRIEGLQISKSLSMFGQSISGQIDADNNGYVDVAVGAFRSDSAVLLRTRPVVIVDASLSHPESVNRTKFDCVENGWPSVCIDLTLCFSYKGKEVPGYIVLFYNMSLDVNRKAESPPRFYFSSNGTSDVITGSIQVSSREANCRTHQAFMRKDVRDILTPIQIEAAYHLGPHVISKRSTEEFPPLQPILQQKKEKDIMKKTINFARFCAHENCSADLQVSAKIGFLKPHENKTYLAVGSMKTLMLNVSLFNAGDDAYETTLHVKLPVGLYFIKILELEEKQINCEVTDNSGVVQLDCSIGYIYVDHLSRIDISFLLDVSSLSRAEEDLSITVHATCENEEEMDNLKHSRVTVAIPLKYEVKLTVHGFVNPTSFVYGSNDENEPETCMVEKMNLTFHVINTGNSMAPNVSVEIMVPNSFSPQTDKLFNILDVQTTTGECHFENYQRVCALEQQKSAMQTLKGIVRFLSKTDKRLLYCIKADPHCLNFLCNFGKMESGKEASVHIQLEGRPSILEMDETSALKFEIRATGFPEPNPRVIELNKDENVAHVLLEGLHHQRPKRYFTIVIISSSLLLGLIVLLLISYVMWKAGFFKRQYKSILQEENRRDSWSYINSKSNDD
Experiment: alpha4beta1 integrin LIBS antibody binding reduction – U937 cells, HUTS-21 mAb, flow cytometry, validation set, VLA-4 allosteric modulator project, pilot screen (AID 2674);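 also: antibody binding induced by the VLA-4 ligand LDV present at three times its Kd; 0% = LDV ligand with antibody and no compound and 100% = antibody without LDV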
Conditions: HUTS-21 LIBS mAb binding, at 6.7 µM, stronger effect = higher value, binding induced by LDV ligand
The entries below are paired with their reported inhibition.
Report as a plain number; the unit % is understood.

The examples below pair each entry with its known result.
SMILES_ENTRY: Cc1cc(OC(=O)CNC(=O)OC(C)(C)C)c2c(C)cc(=O)oc2c1
ASSAY_TARGET: Integrin beta-1 (Homo sapiens) + Integrin alpha-4 (Homo sapiens) (UniProt P13612+P05556)
inhibition, %: 10.8

SMILES_ENTRY: Cc1cc(Cl)cc2c1NC(=O)[C@]21[C@@H]2C(=O)N(Cc3ccccc3)C(=O)[C@@H]2[C@@H]2CCCN21
ASSAY_TARGET: Integrin beta-1 (Homo sapiens) + Integrin alpha-4 (Homo sapiens) (UniProt P13612+P05556)
inhibition, %: -232

Please examine the following record next.
// recorded inhibition for CC(=O)OCC(=O)[C@@]1(O)[C@H](C)C[C@H]2[C@@H]3CCC4=CC(=O)C=C[C@]4(C)[C@@]3(F)[C@@H](O)C[C@@]21C : 12.3
